# ASSAY_OVERVIEW: Pharmacokinetics in the mouse, plasma and lung tissue
# Type: in vivo
# CONDITION_SET: mouse lung tissue, oral gavage 10 mg/kg
# Experimental: The pharmacokinetics of compounds of formula (VIII) and compounds of formula (II) and (III) were measured in the mouse. Compounds were administered either intravenously (i.v.) at 1 mg/kg, or per oral gavage (p.o.) at 10 mg/kg. Plasma samples were taken and analyzed by LC/MS-MS. For lung tissue pharmacokinetics, lungs were removed and homogenized, followed by analyzis by LC/MS-MS.
The molecules listed here are annotated with their Lung Cmax.
Write down the value, and be sure its unit follows.

[
  {
    "MOLECULE": "CC1CC(N(C)C)C(O)C(O[C@@H]2[C@@H](C)C(=O)[C@](C)(F)C(=O)O[C@H](CCF)[C@@]3(C)OC(=O)N[C@@H]3[C@@H](C)C(=O)[C@H](C)C[C@@]2(C)OC/C=C/c2cnc3ccccc3c2)O1 (stereo partly drawn)",
    "Lung Cmax": "3300 ng/mL"
  },
  {
    "MOLECULE": "CC1CC(N(C)C)C(O)C(O[C@@H]2[C@@H](C)C(=O)[C@@H](C)C(=O)O[C@H](CCF)[C@@]3(C)OC(=O)N[C@@H]3[C@@H](C)C(=O)[C@H](C)C[C@@]2(C)OC/C=C/c2ccc3cccnc3c2)O1 (stereo partly drawn)",
    "Lung Cmax": "260 ng/mL"
  },
  {
    "MOLECULE": "CC1CC(N(C)C)C(O)C(O[C@@H]2[C@@H](C)C(=O)[C@@H](C)C(=O)O[C@H](CCF)[C@@]3(C)OC(=O)N[C@@H]3[C@@H](C)C(=O)[C@H](C)C[C@@]2(C)OC/C=C/c2ccc3nccnc3c2)O1 (stereo partly drawn)",
    "Lung Cmax": "450 ng/mL"
  },
  {
    "MOLECULE": "CC1CC(N(C)C)C(O)C(O[C@@H]2[C@@H](C)C(=O)[C@](C)(F)C(=O)O[C@H](CCF)[C@@]3(C)OC(=O)N[C@@H]3[C@@H](C)C(=O)[C@H](C)C[C@@]2(C)OC/C=C/c2ccc3nccnc3c2)O1 (stereo partly drawn)",
    "Lung Cmax": "3000 ng/mL"
  },
  {
    "MOLECULE": "CC1CC(N(C)C)C(O)C(O[C@@H]2[C@@H](C)C(=O)[C@@H](C)C(=O)O[C@H](CCF)[C@@]3(C)OC(=O)N[C@@H]3[C@@H](C)C(=O)[C@H](C)C[C@@]2(C)OC/C=C/c2cnc3ccccc3c2)O1 (stereo partly drawn)",
    "Lung Cmax": "800 ng/mL"
  }
]

# input for lookup
Entry under test: CC1CC(N(C)C)C(O)C(O[C@@H]2[C@@H](C)C(=O)[C@](C)(F)C(=O)O[C@H](CCF)[C@@]3(C)OC(=O)N[C@@H]3[C@@H](C)C(=O)[C@H](C)C[C@@]2(C)OC/C=C/c2ccc3cccnc3c2)O1 (stereo partly drawn) . Its Lung Cmax was 8700 ng/mL
